experimental_details: method code SF-RC, from DOI: 10.1021/acs.jmedchem.5b00440, PMID: 26327138
measurement_setup: pH 7.4
measured_endpoint: logD

Ic1ccc2nc(/C=C/c3ccccc3)[nH]c2c1
3.25
CN(C)c1ccc(/C=C/c2nc3ccc(I)cc3s2)cn1
3.25
CN(C)c1ccc(/C=C/c2nc3ccc(I)cc3[nH]2)cn1
3.11
CN(C)c1ccc(C=Cc2cc3ccc(I)cc3s2)cc1
2.4
Ic1ccc2cc(/C=C/c3cccnc3)oc2c1
3.13
Ic1ccc2nc(/C=C/c3cccnc3)[nH]c2c1
3.15
Ic1ccc2nc(/C=C/c3ccccc3)oc2c1
3.95
CN(C)c1ccc(/C=C/c2cc3ccc(I)cc3s2)cn1
2.85
Ic1ccc2cc(/C=C/c3ccccc3)oc2c1
2.38
CN(C)c1ccc(/C=C/c2cc3ccc(I)cc3o2)cc1
2.11
Ic1ccc2cc(/C=C/c3ccccc3)sc2c1
2.34
Ic1ccc2nc(/C=C/c3cccnc3)oc2c1
3.35
CN(C)c1ccc(/C=C/c2nc3ccc(I)cc3s2)cc1
3.15
Ic1ccc2cc(/C=C/c3cccnc3)sc2c1
2.95

Data origin, for the record: the SangsterLogP compilation
